Please respond with reported pIC50 for every item in the list.
tgt: huPPARγ (Homo sapiens)
Numbers only, as −log10 of the molar value.

[[record]]
compound = "Cc1oc(C2CCCCC2)nc1CCOc1ccc(CC(C)(Oc2ccc(OC(F)(F)F)cc2)C(=O)O)cc1 (stereo not drawn)"
readout_value = 6.80


For each listed entry, give its pIC50.
1. Cc1oc(C2CCCCC2)nc1CCOc1ccc(CC(C)(Oc2ccc(C3CCCCC3)cc2)C(=O)O)cc1 (stereo not drawn)
2. COc1ccc(OC(C)(Cc2ccc(OCCc3nc(-c4cccs4)oc3C)cc2)C(=O)O)cc1 (stereo not drawn)
3. Cc1oc(-c2cccs2)nc1CCOc1ccc(CC(C)(Oc2cccc(C(F)(F)F)c2)C(=O)O)cc1 (stereo not drawn)

Marked response:
1: 7.11; 2: 7.10; 3: 7.09

---

System: db/db mice
test summary: Evaluation of glucose levels in db/db mice
Format: in vivo
run conditions: Mus musculus, 168 h, 30 mg/kg oral gavage daily for 7 days, 100% = glucose not different from lean values, read-out: Glucose Normalisation
Use 90% as the dividing line for inhibition in vivo at 30 mg/kg, with the line itself on the t side and lower values as f.

Solved entries (count: 6):
[[record]]
molecule = "Cc1oc(-c2cccs2)nc1CCOc1ccc(C[C@@](C)(Oc2ccccc2)C(=O)O)cc1"
label_class = "f"

[[record]]
molecule = "Cc1oc(C2CCCCC2)nc1CCOc1ccc(CC(C)(Oc2ccc3c(c2)OCO3)C(=O)O)cc1 (stereo not shown)"
label_class = "f"

[[record]]
molecule = "Cc1oc(-c2cccc(Br)c2)nc1CCOc1ccc(CC(C)(Oc2ccccc2)C(=O)O)cc1 (stereo not shown)"
label_class = "t"

[[record]]
molecule = "Cc1oc(-c2cccs2)nc1CCOc1ccc(CC(C)(Oc2ccccc2F)C(=O)O)cc1 (stereo not shown)"
label_class = "f"

[[record]]
molecule = "COc1cccc(OC(C)(Cc2ccc(OCCc3nc(C4CCCCC4)oc3C)cc2)C(=O)O)c1 (stereo not shown)"
label_class = "t"

[[record]]
molecule = "Cc1oc(-c2cccs2)nc1CCOc1ccc(CC(C)(Oc2cccc(C(F)(F)F)c2)C(=O)O)cc1 (stereo not shown)"
label_class = "t"


Exam item: Tell me whether inhibition in vivo at 30 mg/kg is at least 90% here: Cc1oc(-c2ccccc2)nc1CCOc1ccc(CC(C)(Oc2ccccc2)C(=O)O)cc1 (racemic)
Marked response: t

Exam item: Tell me whether inhibition in vivo at 30 mg/kg is at least 90% here: Cc1oc(-c2cccs2)nc1CCOc1ccc(CC(C)(Oc2ccccc2)C(=O)O)cc1 (racemic)
Marked response: f

Exam item: Tell me whether inhibition in vivo at 30 mg/kg is at least 90% here: Cc1oc(-c2ccccc2)nc1CCOc1ccc(C[C@@](C)(Oc2ccccc2)C(=O)O)cc1
Marked response: f

---

tgt: UniProtKB P37231
Sequence (P37231 1-505): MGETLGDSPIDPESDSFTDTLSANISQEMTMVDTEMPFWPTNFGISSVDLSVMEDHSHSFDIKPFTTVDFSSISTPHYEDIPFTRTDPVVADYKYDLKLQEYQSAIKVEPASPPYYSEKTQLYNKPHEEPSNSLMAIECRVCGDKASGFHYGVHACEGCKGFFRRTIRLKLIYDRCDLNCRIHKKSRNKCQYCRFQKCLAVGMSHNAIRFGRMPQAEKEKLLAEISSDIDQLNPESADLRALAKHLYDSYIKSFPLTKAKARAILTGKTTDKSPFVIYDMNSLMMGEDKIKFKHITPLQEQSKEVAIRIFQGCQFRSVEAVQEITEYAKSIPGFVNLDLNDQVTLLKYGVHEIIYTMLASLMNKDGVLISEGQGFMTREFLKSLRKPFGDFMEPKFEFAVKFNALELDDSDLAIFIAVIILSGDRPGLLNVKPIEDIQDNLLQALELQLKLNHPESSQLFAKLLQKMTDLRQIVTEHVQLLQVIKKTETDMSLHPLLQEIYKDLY
Sequence (P19793 1-462 partner): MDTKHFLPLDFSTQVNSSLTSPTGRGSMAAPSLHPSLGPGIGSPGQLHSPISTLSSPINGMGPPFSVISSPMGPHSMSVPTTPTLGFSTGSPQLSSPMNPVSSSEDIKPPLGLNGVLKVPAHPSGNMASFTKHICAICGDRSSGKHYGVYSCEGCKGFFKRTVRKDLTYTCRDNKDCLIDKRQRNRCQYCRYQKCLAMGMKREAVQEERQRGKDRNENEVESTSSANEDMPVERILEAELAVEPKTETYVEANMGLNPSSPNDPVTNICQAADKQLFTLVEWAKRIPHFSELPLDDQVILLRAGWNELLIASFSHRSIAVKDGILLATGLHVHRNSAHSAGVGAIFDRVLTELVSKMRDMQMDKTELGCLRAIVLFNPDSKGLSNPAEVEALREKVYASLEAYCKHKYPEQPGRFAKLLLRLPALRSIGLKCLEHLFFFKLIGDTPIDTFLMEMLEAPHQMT
test summary: Cotransfection assay in CV-1 cells, huPPARγ
Format: cell-based
Set-up: Appropriate PPARs and RXRα were constitutively expressed using plasmids containing the CMV promoter; expressed in transfected cells; host or cells: CV-1 cells
run conditions: AOX PPRE luciferase reporter, relative to PPARγ agonist reference molecule, read-out: huPPARγ CTF Efficacy
assay endpoint: Emax
State the value with its unit after it.

[[record]]
molecule = "Cc1oc(C2CCCCC2)nc1CCOc1ccc(CC(C)(Oc2ccc3c(c2)OCO3)C(=O)O)cc1 (stereo not drawn) [Example 80]"
readout_value = "30%"

[[record]]
molecule = "Cc1ccc(OC(C)(Cc2ccc(OCCc3nc(C4CCCCC4)oc3C)cc2)C(=O)O)cc1C (stereo not drawn) [Example 35]"
readout_value = "21%"

[[record]]
molecule = "Cc1oc(C2CCCCC2)nc1CCOc1ccc(CC(C)(Oc2ccc(C(C)(C)C)cc2)C(=O)O)cc1 (stereo not drawn) [Example 18]"
readout_value = "112%"

[[record]]
molecule = "COc1ccc(OC(C)(Cc2ccc(OCCc3nc(-c4cccs4)oc3C)cc2)C(=O)O)cc1 (stereo not drawn) [Example 19]"
readout_value = "23%"

[[record]]
molecule = "Cc1oc(C2CCCCC2)nc1CCOc1ccc(CC(C)(Oc2ccc(Cl)cc2)C(=O)O)cc1 (stereo not drawn) [Example 31]"
readout_value = "73%"

[[record]]
molecule = "Cc1oc(C2CCCCC2)nc1CCOc1ccc(CC(C)(Oc2ccc(F)c(F)c2)C(=O)O)cc1 (stereo not drawn) [Example 58]"
readout_value = "41%"

[[record]]
molecule = "COc1cccc(OC(C)(Cc2ccc(OCCc3nc(C4CCCCC4)oc3C)cc2)C(=O)O)c1 (stereo not drawn) [Example 76]"
readout_value = "24%"

[[record]]
molecule = "Cc1oc(C2(C)CCCCC2)nc1CCOc1ccc(C[C@](C)(Oc2ccc(F)cc2)C(=O)O)cc1 [Example 67]"
readout_value = "11%"


Now consider a different molecule.
Exam item: Which Emax is reported for this molecule? Cc1oc(C2CCCCC2)nc1CCOc1ccc(CC(C)(Oc2ccc(OC(F)(F)F)cc2)C(=O)O)cc1 (stereo not drawn) [Example 44]
Marked response: 73%
